# Test system: NCI-H460
# experimental_protocol: Antiproliferative activity against human NCI-H460 cells assessed as growth inhibition at 10 uM after 48 hrs by sulforhodamine B assay relative to control
# Assay type: functional
# reported_conditions: NCI-H460, 48 h, read-out: GI
inhibition of growth at 10 µM reference
# output: bare number, implied unit %

Check out these entries, answers already filled in.
Request: Which inhibition of growth at 10 µM is reported for this compound? CCOC(=O)C1=C(CSC(=S)N2CCN(c3ccc(OC)cc3)CC2)N(C)C(=O)NC1c1ccccc1 (stereo unspecified)
Response: 39

Request: Which inhibition of growth at 10 µM is reported for this compound? CCOC(=O)C1=C(CSC2=NCCS2)N(C)C(=O)NC1c1ccccc1 (stereo unspecified)
Response: 2

Request: Which inhibition of growth at 10 µM is reported for this compound? CCOC(=O)C1=C(CSC(=S)N2CCN(c3ccccc3)CC2)N(C)C(=O)NC1c1ccccc1 (stereo unspecified)
Response: 12

Request: Which inhibition of growth at 10 µM is reported for this compound? CCOC(=O)C1=C(CSC(=S)N(C2CCCCC2)C2CCCCC2)N(C)C(=O)NC1c1ccccc1 (stereo unspecified)
Response: 88

Request: Which inhibition of growth at 10 µM is reported for this compound? CCOC(=O)C1=C(CSC(=S)N2CCCCC2)N(C)C(=O)NC1c1ccccc1 (stereo unspecified)
Response: 10

Now look at this one.
Request: Which inhibition of growth at 10 µM is reported for this compound? CCOC(=O)C1=C(CN(C2CCCCC2)C2CCCCC2)N(C)C(=O)NC1c1ccccc1 (stereo unspecified)
Response: 13

----------
# Test system: NCI-H522
# experimental_protocol: Antiproliferative activity against human NCI-H522 cells assessed as growth inhibition at 10 uM after 48 hrs by sulforhodamine B assay relative to control
# Format: functional
# reported_conditions: NCI-H522, 48 h, read-out: GI
Label T when inhibition of growth at 10 µM is at or above 20%; otherwise label F.

Request: Please indicate if the recorded inhibition of growth at 10 µM for CCOC(=O)C1=C(CSC(=S)N(C2CCCCC2)C2CCCCC2)N(C)C(=O)NC1c1ccccc1 (stereo not given) meets or exceeds 20%.
Response: T

Request: Please indicate if the recorded inhibition of growth at 10 µM for CCOC(=O)C1=C(CSC(=S)N2CCN(c3ccc(OC)cc3)CC2)N(C)C(=O)NC1c1ccccc1 (stereo not given) meets or exceeds 20%.
Response: T

Continuing:
Request: Please indicate if the recorded inhibition of growth at 10 µM for CCOC(=O)C1=C(CSC2=NCCS2)N(C)C(=O)NC1c1ccccc1 (stereo not given) meets or exceeds 20%.
Response: F

Request: Please indicate if the recorded inhibition of growth at 10 µM for CCOC(=O)C1=C(CSc2nnc(-c3ccccc3)o2)N(C)C(=O)NC1c1ccccc1 (stereo not given) meets or exceeds 20%.
Response: F

Request: Please indicate if the recorded inhibition of growth at 10 µM for CCOC(=O)C1=C(Cn2cc(CO)nn2)N(C)C(=O)NC1c1ccccc1 (stereo not given) meets or exceeds 20%.
Response: F

----------
# System: NCI-H522
# experimental_protocol: Antiproliferative activity against human NCI-H522 cells assessed as growth inhibition at 10 uM after 48 hrs by sulforhodamine B assay relative to control
# Type: functional
# reported_conditions: NCI-H522, 48 h, read-out: GI
test_readout: inhibition of growth at 10 µM (%)
# output: bare number, implied unit %

Check out these entries, answers already filled in.
Request: Enter reported inhibition of growth at 10 µM observed with NCI-H522 for CCOC(=O)C1=C(CN(C2CCCCC2)C2CCCCC2)N(C)C(=O)NC1c1ccccc1 (configuration not stated)
Response: 18

Request: Enter reported inhibition of growth at 10 µM observed with NCI-H522 for CCOC(=O)C1=C(CSC(=S)N2CCCCC2)N(C)C(=O)NC1c1ccccc1 (configuration not stated)
Response: 25

Request: Enter reported inhibition of growth at 10 µM observed with NCI-H522 for CCOC(=O)C1=C(CSc2nnnn2-c2ccccc2)N(C)C(=O)NC1c1ccccc1 (configuration not stated)
Response: 14

Request: Enter reported inhibition of growth at 10 µM observed with NCI-H522 for CCOC(=O)C1=C(CN2CCCC2)N(C)C(=O)NC1c1ccccc1 (configuration not stated)
Response: 4

Request: Enter reported inhibition of growth at 10 µM observed with NCI-H522 for CCOC(=O)C1=C(CSC(=S)N2CCOCC2)N(C)C(=O)NC1c1ccccc1 (configuration not stated)
Response: 7

Request: Enter reported inhibition of growth at 10 µM observed with NCI-H522 for CCOC(=O)C1=C(CSC(=S)N2CCN(c3ccccc3)CC2)N(C)C(=O)NC1c1ccccc1 (configuration not stated)
Response: 28

Now look at this one.
Request: Enter reported inhibition of growth at 10 µM observed with NCI-H522 for CCOC(=O)C1=C(CSc2nc3ccccc3[nH]2)N(C)C(=O)NC1c1ccccc1 (configuration not stated)
Response: 3
